Hey, just so you know, these numbers are from ChEMBL document CHEMBL1201862.

- MEASUREMENT TARGET: UniProt P07900
- Format: functional, organism-based
The source made the active and inactive calls.
A collection of compounds and their measured AC50

COMPOUND: O=C(CC(n1cncn1)C(Cl)(Cl)Cl)c1ccc([N+](=O)[O-])cc1 (centres undefined)
AC50: 4.15 µM (active)
//
COMPOUND: CCOC(=O)c1[n-]c2ccccc2c1[N+]#N
AC50: 0.444 µM (active)
//
COMPOUND: CC(=NNC(S)=Nc1ccccc1Cl)c1ccccn1
AC50: 3.46 µM (active)
//
COMPOUND: O=C1C=CC(=O)N1c1ccc2ccccc2c1
AC50: 0.832 µM (active)
//
COMPOUND: CCCCCCCCCCOC(=O)Cn1c(COc2ccc(OC)cc2)[n+](C)c2ccccc21
AC50: 38.2 µM (active)
//
COMPOUND: CC(=O)C1=C(c2ccc(Br)cc2)C(=O)c2ccccc2C1=O
AC50: 7.99 µM (active)
//
COMPOUND: CCCCCC(=O)N(O)C1CC(=O)N(c2ccccc2)C1=O (centres undefined)
AC50: 4.5 µM (active)
//
COMPOUND: O=C(Nc1nnc(-c2ccc3c(c2)CCCC3)o1)c1ccc(Cl)cc1Cl
AC50: 2.34 µM (active)
//
COMPOUND: COc1cc(C#Cc2c(-c3cncn3C)n(C)c3ccc(-c4ccc(OC)nc4)cc23)cc(OC)c1
AC50: 5.5 µM (active)
